# measurement target: Nuclear factor erythroid 2-related factor 2 (Homo sapiens)
# Sequence (whole entry): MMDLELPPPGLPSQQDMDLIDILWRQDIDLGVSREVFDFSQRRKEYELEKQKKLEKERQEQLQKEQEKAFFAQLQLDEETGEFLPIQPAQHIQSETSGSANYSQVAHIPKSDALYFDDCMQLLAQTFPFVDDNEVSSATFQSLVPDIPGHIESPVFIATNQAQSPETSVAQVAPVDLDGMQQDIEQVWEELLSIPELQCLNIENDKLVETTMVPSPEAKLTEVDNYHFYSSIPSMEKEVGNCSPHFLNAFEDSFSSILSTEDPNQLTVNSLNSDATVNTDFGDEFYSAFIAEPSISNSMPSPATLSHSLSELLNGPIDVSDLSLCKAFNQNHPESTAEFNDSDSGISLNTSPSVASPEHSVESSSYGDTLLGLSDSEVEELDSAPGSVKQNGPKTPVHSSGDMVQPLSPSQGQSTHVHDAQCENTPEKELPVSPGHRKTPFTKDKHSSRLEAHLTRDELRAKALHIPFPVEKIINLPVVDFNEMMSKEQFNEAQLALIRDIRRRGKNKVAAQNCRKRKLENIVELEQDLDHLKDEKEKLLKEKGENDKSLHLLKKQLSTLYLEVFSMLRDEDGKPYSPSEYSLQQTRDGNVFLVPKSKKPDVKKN
# assay explanation: Activation of Nrf2 in human HepG2-ARE-C8 cells assessed as upregulation of ARE level at 0.2 uM after 12 hrs by luciferase reporter gene assay relative to control
# Format: cell-based
metric name: fold change (FC)
Lab note: jot down the number only; don't add units.

* COc1ccc(-c2nc(-c3ccc4nc[nH]c4c3)no2)c(OC)c1 | 1.59
* c1ccc(-c2ccc(-c3nc(-c4ccc5nc[nH]c5c4)no3)cc2)cc1 | 1.54
* FC(F)(F)c1ccccc1-c1nc(-c2ccc3nc[nH]c3c2)no1 | 2.28
* Cn1nnc2ccc(-c3noc(-c4ccc(F)cc4)n3)cc21 | 1.83

Now turn to the next compound.
Reading of fold change (FC) for Clc1ccc(-c2nc(-c3ccc4nc[nH]c4c3)no2)cc1 with Nuclear factor erythroid 2-related factor 2 (Homo sapiens): 2.79

----------
# measurement target: Nuclear factor erythroid 2-related factor 2 (Homo sapiens) (UniProt Q16236)
# assay explanation: Activation of Nrf2 in human HepG2-ARE-C8 cells assessed as upregulation of ARE level at 0.2 uM after 12 hrs by luciferase reporter gene assay relative to control
# Assay type: cell-based
Documented fold change (FC) across a set of molecules

- Cn1cnc2ccc(-c3noc(-c4ccccc4)n3)cc21: 3.41
- c1ccc2cc(-c3nc(-c4ccc5nc[nH]c5c4)no3)ccc2c1: 1.23
- CCc1ccc(-c2nc(-c3ccc4nc[nH]c4c3)no2)cc1: 1.75
- O=[N+]([O-])c1ccccc1-c1nc(-c2ccc3nc[nH]c3c2)no1: 3.76
- COc1cccc(-c2nc(-c3ccc4nc[nH]c4c3)no2)c1: 1.95
- Brc1ccc(-c2nc(-c3ccc4nc[nH]c4c3)no2)cc1: 2.36
- CCCc1ccc(-c2nc(-c3ccc4nc[nH]c4c3)no2)cc1: 1.73
- Cn1cnc2ccc(-c3noc(-c4ccc5cc[nH]c5c4)n3)cc21: 1.5

According to the records, this molecule COc1ccccc1-c1nc(-c2ccc3nc[nH]c3c2)no1 displays fold change (FC) of 1.39

According to the records, this molecule c1cc2ccc(-c3nc(-c4ccc5nc[nH]c5c4)no3)cc2[nH]1 displays fold change (FC) of 1.5

According to the records, this molecule CC(C)(C)C1=CC(=O)C=CC1=O displays fold change (FC) of 1.25

According to the records, this molecule c1ccc2nc(-c3nc(-c4ccc5nc[nH]c5c4)no3)ccc2c1 displays fold change (FC) of 2.04

According to the records, this molecule COc1ccc(OC)c(-c2nc(-c3ccc4nc[nH]c4c3)no2)c1 displays fold change (FC) of 2.96

According to the records, this molecule Cc1cccc(-c2nc(-c3ccc4nc[nH]c4c3)no2)c1 displays fold change (FC) of 1.94

According to the records, this molecule Cn1nnc2cc(-c3noc(-c4ccccc4)n3)ccc21 displays fold change (FC) of 1.12

----------
# measurement target: UniProt:Q16236
# Sequence (whole entry): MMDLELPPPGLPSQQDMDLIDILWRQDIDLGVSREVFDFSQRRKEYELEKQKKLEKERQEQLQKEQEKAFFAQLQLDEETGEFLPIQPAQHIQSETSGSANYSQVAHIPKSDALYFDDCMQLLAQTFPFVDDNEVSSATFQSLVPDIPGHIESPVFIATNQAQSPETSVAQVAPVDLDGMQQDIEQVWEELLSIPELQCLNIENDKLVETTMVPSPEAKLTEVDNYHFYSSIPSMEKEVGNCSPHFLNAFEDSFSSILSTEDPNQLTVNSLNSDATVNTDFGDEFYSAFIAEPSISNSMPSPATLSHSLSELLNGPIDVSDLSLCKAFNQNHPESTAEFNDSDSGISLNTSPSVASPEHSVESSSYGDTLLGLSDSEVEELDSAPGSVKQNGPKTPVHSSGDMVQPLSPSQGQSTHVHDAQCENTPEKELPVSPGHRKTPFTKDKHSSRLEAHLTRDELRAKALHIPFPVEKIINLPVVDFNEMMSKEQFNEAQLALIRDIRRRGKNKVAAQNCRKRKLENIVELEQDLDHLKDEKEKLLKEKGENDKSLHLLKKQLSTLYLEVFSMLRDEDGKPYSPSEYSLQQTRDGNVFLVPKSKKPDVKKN
# assay explanation: Activation of Nrf2 in human HepG2-ARE-C8 cells assessed as upregulation of ARE level at 2 uM after 12 hrs by luciferase reporter gene assay relative to control
# Type: cell-based
metric name: fold change (FC)
Lab note: jot down the number only; don't add units.

* c1ccc2nc(-c3nc(-c4ccc5nc[nH]c5c4)no3)ccc2c1 | 4.35
* CCCc1ccc(-c2nc(-c3ccc4nc[nH]c4c3)no2)cc1 | 2.25
* CCCCc1ccc(-c2nc(-c3ccc4nc[nH]c4c3)no2)cc1 | 10.9
* O=[N+]([O-])c1cccc(-c2nc(-c3ccc4nc[nH]c4c3)no2)c1 | 4.74
* COc1ccc(-c2nc(-c3ccc4nc[nH]c4c3)no2)cc1 | 3.27
* Cc1nc2cc(-c3noc(-c4ccccc4Br)n3)ccc2o1 | 1.47
* c1cc(-c2nc(-c3ccc4nc[nH]c4c3)no2)ccn1 | 4.27
* O=[N+]([O-])c1ccc(-c2nc(-c3ccc4nc[nH]c4c3)no2)cc1 | 6.59
* COc1cc(-c2nc(-c3ccc4nc[nH]c4c3)no2)cc(OC)c1OC | 2.41
* N#Cc1cccc(-c2nc(-c3ccc4nc[nH]c4c3)no2)c1 | 1.42

Reading of fold change (FC) for Cn1nnc2ccc(-c3noc(-c4ccc(F)cc4)n3)cc21 with UniProt:Q16236: 3.17

Reading of fold change (FC) for COc1ccc(OC)c(-c2nc(-c3ccc4nc[nH]c4c3)no2)c1 with UniProt:Q16236: 3.21

Reading of fold change (FC) for Clc1ccc(-c2nc(-c3ccc4nc[nH]c4c3)no2)cc1 with UniProt:Q16236: 7.25

----------
Documented fold change (FC) across a set of compounds
# measurement target: Nuclear factor erythroid 2-related factor 2 (Homo sapiens) (UniProt Q16236)
# assay explanation: Activation of Nrf2 in human HepG2-ARE-C8 cells assessed as upregulation of ARE level at 0.02 uM after 12 hrs by luciferase reporter gene assay relative to control
# Format: cell-based
Lab note: jot down the number only; don't add units.

• O=[N+]([O-])c1ccc(-c2nc(-c3ccc4nc[nH]c4c3)no2)cc1 = 1.64
• Oc1ccc(-c2nc(-c3ccc4nc[nH]c4c3)no2)cc1 = 1.56
• c1cc2ccc(-c3nc(-c4ccc5nc[nH]c5c4)no3)cc2[nH]1 = 1.22

Reading of fold change (FC) for CCCc1ccc(-c2nc(-c3ccc4nc[nH]c4c3)no2)cc1 with Nuclear factor erythroid 2-related factor 2 (Homo sapiens) (UniProt Q16236): 1.48

----------
# measurement target: Nuclear factor erythroid 2-related factor 2 (Homo sapiens) (UniProt Q16236)
# assay explanation: Activation of Nrf2 in human HepG2-ARE-C8 cells assessed as upregulation of ARE level at 160 uM after 12 hrs by luciferase reporter gene assay relative to control
# Assay type: cell-based
Just so you know, the groups by fold change (FC) go like this: class 0 (below 4), class 1 (4 to below 9), class 2 (9 or more)

Some solved entries appear below for comparison.
- COc1cccc(-c2nc(-c3ccc4nc[nH]c4c3)no2)c1: class 1
- N#Cc1ccccc1-c1nc(-c2ccc3nc[nH]c3c2)no1: class 0
- COc1ccccc1-c1nc(-c2ccc3nc[nH]c3c2)no1: class 1
- c1ccc2cc(-c3nc(-c4ccc5nc[nH]c5c4)no3)ccc2c1: class 2

Exercise: Note: place this compound into its band. Item: c1cc(-c2nc(-c3ccc4nc[nH]c4c3)no2)ccn1
Key: class 2

Exercise: Note: place this compound into its band. Item: c1ccc(-c2nc(-c3ccc4nc[nH]c4c3)no2)nc1
Key: class 0

Exercise: Note: place this compound into its band. Item: Cn1cnc2ccc(-c3noc(-c4ccc5ccccc5c4)n3)cc21
Key: class 0

Exercise: Note: place this compound into its band. Item: Brc1ccc(-c2nc(-c3ccc4nc[nH]c4c3)no2)cc1
Key: class 0

Exercise: Note: place this compound into its band. Item: COc1ccc(OC)c(-c2nc(-c3ccc4nc[nH]c4c3)no2)c1
Key: class 1

Exercise: Note: place this compound into its band. Item: FC(F)(F)c1ccc(-c2nc(-c3ccc4nc[nH]c4c3)no2)cc1
Key: class 0

Exercise: Note: place this compound into its band. Item: Oc1ccccc1-c1nc(-c2ccc3nc[nH]c3c2)no1
Key: class 0

Exercise: Note: place this compound into its band. Item: COc1ccc(-c2nc(-c3ccc4nc[nH]c4c3)no2)cc1
Key: class 1

Exercise: Note: place this compound into its band. Item: Cc1nc2cc(-c3noc(-c4ccccc4Br)n3)ccc2o1
Key: class 1

Data origin: ChEMBL document CHEMBL3585308
